Record form. Attribute: Maximum inhibition. Fill in for each entry.
Tested on: MV-4-11 cell line
Test: Inhibitory activity on proliferation of human-derived MV-4-11 tumor cell line (MTS)
Type: cell-based
Conditions: MV-4-11, 72 h
Excerpt: Human-derived acute leukemia cell line MV-4-11 is a cell line having mutation(s) in Flt-3.
Give bare numbers, in %.

Take a look at these entries with their results.
compound	systemUnderTest	Maximum inhibition (%)
Cc1[nH]c(/C=C2\C(=O)Nc3ccc(F)cc32)c(C)c1NC(=O)C1CCCN(C(=O)N(C)C)C1 (stereo not drawn) [Compound 13]	MV-4-11 cell line	90.2
Cc1[nH]c(/C=C2\C(=O)Nc3ccc(F)cc32)c(C)c1NC(=O)C1CCCNC1 (stereo not drawn) [Compound 12]	MV-4-11 cell line	93.1
Cc1[nH]c(/C=C2\C(=O)Nc3ccc(F)cc32)c(C)c1NC(=O)[C@@H]1CCCN1 [Compound 15]	MV-4-11 cell line	92.5
Cc1[nH]c(/C=C2\C(=O)Nc3ccc(F)cc32)c(C)c1NC(=O)C1CCN(C)CC1 [Compound 5]	MV-4-11 cell line	95.0
Cc1[nH]c(/C=C2\C(=O)Nc3ccc(F)cc32)c(C)c1NC(=O)[C@H]1CCCN1 [Compound 6]	MV-4-11 cell line	92.4

Go through the list and state Maximum inhibition for each entry.
1. Cc1[nH]c(/C=C2\C(=O)Nc3ccc(F)cc32)c(C)c1NC(=O)C1CCNCC1 [Compound 2]
2. Cc1[nH]c(/C=C2\C(=O)Nc3ccc(F)cc32)c(C)c1NC(=O)C1CCN(C(=O)N(C)C)CC1 [Compound 3]

Response given:
[92.6, 92.1]

Go through the list and state Maximum inhibition for each entry.
1. CCN(CC)CCNC(=O)c1c(C)[nH]c(/C=C2\C(=O)Nc3ccc(F)cc32)c1C [Sunitinib, reference compound]
2. Cc1[nH]c(/C=C2\C(=O)Nc3ccc(F)cc32)c(C)c1NC(=O)C1CCCCN1 (stereo not drawn) [Compound 9]

Response given:
1: 94.4; 2: 94.3

----------
Test system: HUVEC
Test: Cytotoxicity to HUVEC (MTS)
Type: cell-based, Human
Settings: HUVEC
Procedure: Assays for cytotoxicity: the above HUVECs were cultured in an F-12K culture medium containing 10% fetal bovine serum (FBS), 100 U/mL penicillin, 100 µg/mL streptomycin, 30 ug/mL ECGS, and 18 u/mL heparin. […] 1-2 hours later, OD490 was measured, with OD650 as a reference. A dose-effect curve was drawn using the GraphPad Prism software, and half cytotoxic concentration (CC50) was calculated. The therapeutic index (TI) of the test compound on HUVECs was calculated as TI=CC50/EC50.
Record form. Attribute: TI = CC50/EC50. Fill in for each entry.
Answers are plain numbers.

molecule	numericValue
Cc1[nH]c(/C=C2\C(=O)Nc3ccc(F)cc32)c(C)c1NC(=O)N1CCCCC1 [Comparative compound 1, reference compound]	430

Challenge: # TI = CC50/EC50 lookup, item "Cc1[nH]c(/C=C2\C(=O)Nc3ccc(F)cc32)c(C)c1NC(=O)[C@H]1CCCN1"
Response given: 1316

----------
Record form. Attribute: TI = CC50/EC50. Fill in for each entry.
tested on: HUVEC; assay: Cytotoxicity to HUVEC (MTS); type: cell-based, Human; details: HUVEC
One number for each entry.

Take a look at these entries with their results.
compound	TI = CC50/EC50
Cc1[nH]c(/C=C2\C(=O)Nc3ccc(F)cc32)c(C)c1NC(=O)CC1CCNCC1 [Comparative compound 3, reference compound]	550
Cc1[nH]c(/C=C2\C(=O)Nc3ccc(F)cc32)c(C)c1NC(=O)N1CCCC1 [Comparative compound 2, reference compound]	567

Challenge: API: value(readout= TI = CC50/EC50, system= HUVEC, query= Cc1[nH]c(/C=C2\C(=O)Nc3ccc(F)cc32)c(C)c1NC(=O)[C@@H]1CCCN1 [Compound 15] )
Response given: 1247

----------
test: Cytotoxicity to HUVEC (MTS); type: cell-based, Human; conditions: human, HUVEC cells; 72 h
outcomeMeasure: CC50 at 72 h

Take a look at these entries with their results.
molecule	CC50 at 72 h
Cc1[nH]c(/C=C2\C(=O)Nc3ccc(F)cc32)c(C)c1NC(=O)C1CCCN(C(=O)N2CCCC2)C1 (stereo not shown) [Compound 14]	> 20 µM
Cc1[nH]c(/C=C2\C(=O)Nc3ccc(F)cc32)c(C)c1NC(=O)C1CCN(C(=O)N(C)C)CC1 [Compound 3]	> 20 µM
CCN(CC)CCNC(=O)c1c(C)[nH]c(/C=C2\C(=O)Nc3ccc(F)cc32)c1C [Sunitinib, reference compound]	4.14 µM

We now examine a further molecule.
Challenge: # CC50 at 72 h lookup, item Cc1[nH]c(/C=C2\C(=O)Nc3ccc(F)cc32)c(C)c1NC(=O)C1CCNCC1 [Compound 2]
Response given: > 20 µM

----------
For UniProtKB P35968, measured IC50 is reported for the entries below.
Sequence (P35968 20-1356): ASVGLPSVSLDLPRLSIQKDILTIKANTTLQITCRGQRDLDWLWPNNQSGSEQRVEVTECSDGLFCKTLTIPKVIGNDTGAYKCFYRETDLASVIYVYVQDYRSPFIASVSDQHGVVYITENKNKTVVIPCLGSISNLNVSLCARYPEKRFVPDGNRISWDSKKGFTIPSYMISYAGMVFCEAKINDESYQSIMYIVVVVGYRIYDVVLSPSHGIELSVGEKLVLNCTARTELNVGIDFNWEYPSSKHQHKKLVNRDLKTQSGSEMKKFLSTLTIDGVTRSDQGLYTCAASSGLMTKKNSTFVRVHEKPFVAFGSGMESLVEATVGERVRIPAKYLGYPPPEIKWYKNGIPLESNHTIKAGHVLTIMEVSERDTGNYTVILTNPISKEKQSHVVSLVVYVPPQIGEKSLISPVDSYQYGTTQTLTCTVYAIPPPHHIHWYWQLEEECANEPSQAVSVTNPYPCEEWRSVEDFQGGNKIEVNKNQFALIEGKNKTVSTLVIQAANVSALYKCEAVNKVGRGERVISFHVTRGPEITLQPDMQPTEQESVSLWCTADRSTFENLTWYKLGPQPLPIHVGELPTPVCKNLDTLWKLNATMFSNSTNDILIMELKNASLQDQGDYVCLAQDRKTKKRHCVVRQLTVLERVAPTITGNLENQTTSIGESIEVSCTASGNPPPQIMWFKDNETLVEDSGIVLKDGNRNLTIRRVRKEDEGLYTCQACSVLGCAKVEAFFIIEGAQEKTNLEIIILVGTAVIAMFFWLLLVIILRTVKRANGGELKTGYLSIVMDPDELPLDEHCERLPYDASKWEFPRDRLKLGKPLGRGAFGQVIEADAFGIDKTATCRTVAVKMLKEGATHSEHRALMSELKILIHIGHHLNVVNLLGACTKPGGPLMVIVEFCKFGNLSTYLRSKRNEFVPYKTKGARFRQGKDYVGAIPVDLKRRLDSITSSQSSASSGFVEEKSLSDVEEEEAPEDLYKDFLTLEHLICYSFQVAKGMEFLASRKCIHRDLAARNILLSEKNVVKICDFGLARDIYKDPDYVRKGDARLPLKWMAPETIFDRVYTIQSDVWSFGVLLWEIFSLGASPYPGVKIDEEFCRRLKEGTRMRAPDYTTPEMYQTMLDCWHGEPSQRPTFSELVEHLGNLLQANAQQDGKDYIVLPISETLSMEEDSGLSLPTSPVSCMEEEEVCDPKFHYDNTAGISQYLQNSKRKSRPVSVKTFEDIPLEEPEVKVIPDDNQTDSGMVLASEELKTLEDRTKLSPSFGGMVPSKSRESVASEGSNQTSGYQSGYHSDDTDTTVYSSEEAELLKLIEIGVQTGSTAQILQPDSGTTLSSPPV
Answer with the value and then the unit.

Cc1[nH]c(/C=C2\C(=O)Nc3ccc(F)cc32)c(C)c1NC(=O)C1CCN(C(=O)N(C)C)CC1 78 nM

Go through the list and state IC50 for each entry.
1. Cc1[nH]c(/C=C2\C(=O)Nc3ccc(F)cc32)c(C)c1NC(=O)C1CCN(C(=O)N2CCCC2)CC1
2. Cc1[nH]c(/C=C2\C(=O)Nc3ccc(F)cc32)c(C)c1NC(=O)[C@H]1CCCN1
3. Cc1[nH]c(/C=C2\C(=O)Nc3ccc(F)cc32)c(C)c1NC(=O)[C@H]1CCCN1C(=O)N(C)C

Response given:
1: 74 nM; 2: 83 nM; 3: 66 nM

----------
Record form. Attribute: pEC50. Fill in for each entry.
system: HUVEC; test: Inhibitory activity on VEGF-induced in vitro proliferation of HUVEC (MTS); type: cell-based; conditions: Homo sapiens, VEGF165 30 ng/ml, 72 h, read-out: EC50, activity on VEGF-induced in vitro proliferation of HUVEC
Give bare numbers, as −log10 of the molar value.

Take a look at these entries with their results.
molecule	numericValue
Cc1[nH]c(/C=C2\C(=O)Nc3ccc(F)cc32)c(C)c1NC(=O)C1CCNCC1	7.79
Cc1[nH]c(/C=C2\C(=O)Nc3ccc(F)cc32)c(C)c1NC(=O)C1CCN(C(=O)N(C)C)CC1	7.86
Cc1[nH]c(/C=C2\C(=O)Nc3ccc(F)cc32)c(C)c1NC(=O)N1CCCCC1 [Comparative compound 1, reference compound]	7.88
Cc1[nH]c(/C=C2\C(=O)Nc3ccc(F)cc32)c(C)c1NC(=O)C1CCN(C)CC1	7.73

Go through the list and state pEC50 for each entry.
1. Cc1[nH]c(/C=C2\C(=O)Nc3ccc(F)cc32)c(C)c1NC(=O)CC1CCNCC1 [Comparative compound 3, reference compound]
2. Cc1[nH]c(/C=C2\C(=O)Nc3ccc(F)cc32)c(C)c1NC(=O)N1CCCC1 [Comparative compound 2, reference compound]
3. Cc1[nH]c(/C=C2\C(=O)Nc3ccc(F)cc32)c(C)c1NC(=O)C1CCN(C(=O)N2CCCC2)CC1
4. Cc1[nH]c(/C=C2\C(=O)Nc3ccc(F)cc32)c(C)c1NC(=O)[C@H]1CCCN1
5. Cc1[nH]c(/C=C2\C(=O)Nc3ccc(F)cc32)c(C)c1NC(=O)[C@H]1CCCN1C(=O)N(C)C
6. Cc1[nH]c(/C=C2\C(=O)Nc3ccc(F)cc32)c(C)c1NC(=O)[C@@H]1CCCN1
7. Cc1[nH]c(/C=C2\C(=O)Nc3ccc(F)cc32)c(C)c1NC(=O)C1CCCN(C(=O)N2CCCC2)C1 (centres unmarked)

Response given:
7.83
7.91
7.86
7.87
7.95
7.85
7.88

----------
assay: Cytotoxicity to HUVEC (MTS); assay type: cell-based, Human; settings: human, HUVEC cells; 72 h
Record form. Attribute: CC50 at 72 h. Fill in for each entry.
One number for each entry, in µM.

Take a look at these entries with their results.
compound	CC50 at 72 h / µM
Cc1[nH]c(/C=C2\C(=O)Nc3ccc(F)cc32)c(C)c1NC(=O)[C@H]1CCCN1 [Compound 6]	17.6
Cc1[nH]c(/C=C2\C(=O)Nc3ccc(F)cc32)c(C)c1NC(=O)N1CCCC1 [Comparative compound 2, reference compound]	6.98
Cc1[nH]c(/C=C2\C(=O)Nc3ccc(F)cc32)c(C)c1NC(=O)CC1CCNCC1 [Comparative compound 3, reference compound]	8.05
Cc1[nH]c(/C=C2\C(=O)Nc3ccc(F)cc32)c(C)c1NC(=O)[C@@H]1CCCN1 [Compound 15]	17.7

Challenge: # CC50 at 72 h lookup, item Cc1[nH]c(/C=C2\C(=O)Nc3ccc(F)cc32)c(C)c1NC(=O)N1CCCCC1 [Comparative compound 1, reference compound]
Response given: 5.69
